B1: WEE1 (parent)
chain: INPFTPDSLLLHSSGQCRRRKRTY

# Variants of: B1
# protocol summary: protein stability index of a GFP-peptide fusion (GPS, HEK-293T) (PSI 1-6); higher = more stable;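 further: lentivirally expressed fusions sorted by FACS into six bins by GFP to DsRed ratio, PSI derived from sequencing read proportions per bin multiplied by bin number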
# assay setup: c terminus: a fixed tail appended
quantity name: protein stability index

| ordered residues | endpoint result |
| --- | --- |
| INPFTPDSLLLHFSGQCRRRKRTY | 2.3 |
| IMPFTPDSLLLHSSGQCRRRKRTY | 3.08 |
| IVPFTPDSLLLHSSGQCRRRKRTY | 3.39 |
| INPFTPDSLLLHSSGQWRRRKRTY | 3.35 |
| INPFTPGSLLLHSSGQCRRRKRTY | 2.24 |
| INPFTPDHLLLHSSGQCRRRKRTY | 3.83 |
| INPFTPDSLLLHSSGQQRRRKRTY | 4.4 |
| INPFTPDSLLLHSSFQCRRRKRTY | 1.99 |
| INPFTPDSLLLNSSGQCRRRKRTY | 3.19 |
| INPFYPDSLLLHSSGQCRRRKRTY | 2.93 |
| INPATPDSLLLHSSGQCRRRKRTY | 4.11 |
| INPFTPDSLLLHSSGQCRRRKRTC | 3.8 |
| INPFTPDSLLLHSSGNCRRRKRTY | 4.03 |
| INPFTPDSLLLHASGQCRRRKRTY | 2.6 |
| INPFTPDSLLLHSSGQCRVRKRTY | 2.69 |
| INPFTPDSLLLHSSGQCRRRKRTN | 3.75 |
| INPFTPDSLLLHSSGQCRRWKRTY | 1.82 |
| INPFTPDSLLLHSSGWCRRRKRTY | 2.51 |
| INPFTPDSLLLHSSGQCRRRKRAY | 3.79 |
| INPFTPDSLLGHSSGQCRRRKRTY | 3.95 |
| INPFTPDSLLLHSSGTCRRRKRTY | 3.41 |
| IRPFTPDSLLLHSSGQCRRRKRTY | 2.9 |
| INPFTPDSLLLHSSGQCRRRKRTW | 3.36 |
| INPKTPDSLLLHSSGQCRRRKRTY | 4.27 |
| INPFSPDSLLLHSSGQCRRRKRTY | 3.23 |
| INPFTPDSLLLHSSGQCPRRKRTY | 3.57 |
| INPFTPDALLLHSSGQCRRRKRTY | 3.42 |
| INPFTPDSFLLHSSGQCRRRKRTY | 2.94 |
| IKPFTPDSLLLHSSGQCRRRKRTY | 2.83 |
| INPFTPDSLLLHDSGQCRRRKRTY | 4.08 |
| INPFTPDSLLLHSSGQCRRRTRTY | 2.83 |
| INPFTPDSLLLHSCGQCRRRKRTY | 2.41 |
| INPFTPDSLLLHYSGQCRRRKRTY | 3.29 |
| INPFTPDSLLLHSSGQCRRRGRTY | 3.58 |
| IQPFTPDSLLLHSSGQCRRRKRTY | 3.57 |
| INPFTPDSLLLHSSCQCRRRKRTY | 2.26 |
| INPFTFDSLLLHSSGQCRRRKRTY | 2.64 |
| INPETPDSLLLHSSGQCRRRKRTY | 4.48 |
| INPMTPDSLLLHSSGQCRRRKRTY | 4.04 |
| INPFTPDSLLLHSSGQCRRRKRRY | 3.56 |
| INPFTPDSLLLSSSGQCRRRKRTY | 3.87 |
| INPFTPDSLLLHSSGQCRRRLRTY | 2.72 |
| INPFTPDSKLLHSSGQCRRRKRTY | 3.42 |
| INPFTQDSLLLHSSGQCRRRKRTY | 3.09 |
| INPFTPDSLLLASSGQCRRRKRTY | 3.61 |
| INPFTPDSLLLHSSGQCRRRKRTF | 3.12 |
| INPFTPDSLLLYSSGQCRRRKRTY | 2.89 |
| INPFTPDSLLLHSSGQCRRYKRTY | 2.61 |
| INPFTPDSLLLHSSGQCRRRKRFY | 3.36 |
| INPFTPDSLLYHSSGQCRRRKRTY | 3.75 |
| INPFTPDSLLLHSSGQCERRKRTY | 3.67 |
| INPFTPDSLLLHSSGQCRRCKRTY | 2.5 |
| INPFTPDSLLLHSSGQCRRQKRTY | 2.81 |
| INPFTPDSLLLHSSGQRRRRKRTY | 3.16 |
| INPFNPDSLLLHSSGQCRRRKRTY | 3.24 |
| INPFTPDSLLEHSSGQCRRRKRTY | 4.42 |
| INPFTIDSLLLHSSGQCRRRKRTY | 2.79 |
| INPFTPMSLLLHSSGQCRRRKRTY | 3.12 |
| INPFAPDSLLLHSSGQCRRRKRTY | 3.93 |
| INPFTPDSLLLHQSGQCRRRKRTY | 3.44 |
| INPFTPDSLLLHSSGQDRRRKRTY | 4.42 |
| INPFTPDSYLLHSSGQCRRRKRTY | 2.63 |
| INPFTPDSLLLHSSGECRRRKRTY | 3.69 |
| INPFTPCSLLLHSSGQCRRRKRTY | 2.46 |
| INPFTPDSLLLHSSGQCRRRKFTY | 2.71 |
| INTFTPDSLLLHSSGQCRRRKRTY | 3.06 |
| INPFDPDSLLLHSSGQCRRRKRTY | 4.01 |
| INPFTPDSLLLHSSSQCRRRKRTY | 3.02 |
| INPHTPDSLLLHSSGQCRRRKRTY | 4.25 |
| INPFTPDSLLLHSSGQCRRRKITY | 3.11 |
| INPFTPDSILLHSSGQCRRRKRTY | 3.25 |
| ICPFTPDSLLLHSSGQCRRRKRTY | 3.69 |
| INPFTCDSLLLHSSGQCRRRKRTY | 3.04 |
| INPFTPDSLLSHSSGQCRRRKRTY | 3.96 |
| INPFTPDSLLLHSFGQCRRRKRTY | 2.51 |
| INPFTPDSLLLHSSGHCRRRKRTY | 3.06 |
| INPFTPSSLLLHSSGQCRRRKRTY | 3.14 |
| INPFTTDSLLLHSSGQCRRRKRTY | 3.2 |
| INPFTPDSLLLHSSGQCRRRKRTR | 4.52 |
| INEFTPDSLLLHSSGQCRRRKRTY | 3.44 |
| INPFTPDSLLLHSSGQCRRRKRTT | 3.96 |
| INPFTPDSLLLHSLGQCRRRKRTY | 2.35 |
| INKFTPDSLLLHSSGQCRRRKRTY | 3.1 |
| INPFTPDLLLLHSSGQCRRRKRTY | 2.82 |
| INPFTPDSLLQHSSGQCRRRKRTY | 3.39 |
| INRFTPDSLLLHSSGQCRRRKRTY | 3.4 |
| INPFTPDYLLLHSSGQCRRRKRTY | 2.65 |
| INPFTPDSLLLHSSGQCRRRKRSY | 3.93 |
| CNPFTPDSLLLHSSGQCRRRKRTY | 3.17 |
| INPFTPDSLLLHSSGQCRRRQRTY | 2.46 |
| INPFTPDSLLLHSSGQTRRRKRTY | 4.03 |

This collection of values is drawn from the supplement of paper PMC10567573.
